Provenance of the data: patent US10385065B2

Test system: Staphylococcus aureus ATCC 29213
Experiment: MIC, broth microdilution, S. aureus ATCC 29213
Type: cell-based
Details: ATCC 29213 / MSSA, Table 2, read-out: MIC S. aureus (MSSA) ATCC 29213 CLSI control strain
Record form. Attribute: MIC. Fill in for each entry.

Kindly indicate its recorded MIC. Item: CC(=O)OCc1nc2c(=O)n(C3CC3)c3c(C)c(-c4cc(F)c(N)cc4F)ccc3c2o1 [Compound 98]
< 1 µg/mL

Kindly indicate its recorded MIC. Item: Cc1c(-c2ccc(O)cn2)ccc2c3ocnc3c(=O)n(C3CC3)c12 [Compound 45]
10 to 100 µg/mL

Kindly indicate its recorded MIC. Item: CCn1c(=O)c2ncoc2c2cc(F)c(-c3ccc(N)nc3)c(C)c21 [Compound 106]
10 to 100 µg/mL

Kindly indicate its recorded MIC. Item: CCOC(=O)c1ccc(-c2cc3c(cc2F)c2ocnc2c(=O)n3C2CC2)cc1 [Compound 61]
> 100 µg/mL

Kindly indicate its recorded MIC. Item: Cc1nc2c(=O)n(C3CC3)c3cc(N4CCCC(N)C4)c(F)cc3c2o1 (centres unmarked) [Compound 51]
1 to 10 µg/mL

Kindly indicate its recorded MIC. Item: Cc1nc2c(=O)n(C3CC3)c3c(C)c(-c4cnc(N)nc4)ccc3c2o1 [Compound 16]
1 to 10 µg/mL

Kindly indicate its recorded MIC. Item: CCn1c(=O)c2ncoc2c2ccc(-c3cc(F)c(N)cc3F)c(C)c21 [Compound 2]
1 to 10 µg/mL

Kindly indicate its recorded MIC. Item: Cc1nc2c(=O)n(C3CC3)c3c(C)c(-c4ccc(C(=O)O)cc4)ccc3c2o1 [Compound 8]
> 100 µg/mL
